So I've got a bunch of compounds here, and I need their IC50 values.
Target: PIM1 (Homo sapiens)
Sequence (P11309 whole entry): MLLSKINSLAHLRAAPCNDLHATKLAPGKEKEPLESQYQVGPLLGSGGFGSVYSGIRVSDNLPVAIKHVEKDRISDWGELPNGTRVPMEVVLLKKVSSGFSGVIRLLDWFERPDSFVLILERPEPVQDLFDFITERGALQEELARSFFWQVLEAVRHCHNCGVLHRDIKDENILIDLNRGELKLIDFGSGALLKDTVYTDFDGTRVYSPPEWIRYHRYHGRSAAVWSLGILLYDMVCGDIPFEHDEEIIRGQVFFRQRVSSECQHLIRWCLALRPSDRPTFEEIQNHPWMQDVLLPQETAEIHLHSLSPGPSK

Query IC50 on PIM1 (Homo sapiens) for CN(C)CC(O)COc1ccc(Nc2ncc([N+](=O)[O-])c(Nc3ccccc3O)n2)cc1.O=C(O)C(F)(F)F (centres unmarked) > 20 µM

Query IC50 on PIM1 (Homo sapiens) for Cl.NCC1(c2nc(-c3ccc(Cl)c(O)c3)c(-c3ccncc3)[nH]2)CCCCC1 > 20 µM

----------
quantity_name: IC50

Query IC50 on PLK1 (Homo sapiens, UniProt P53350) for Cl.NCC1(c2nc(-c3ccc(Cl)c(O)c3)c(-c3ccncc3)[nH]2)CCCCC1 [TCMDC-141154] > 20 µM
